Value source: PubChem BioAssay (NCI)

# Tested on: IGROV1 ovarian
# assay-comment: NCI tumour cell line growth inhibition, 48 h
Reported TGI by item:

Take a look at these entries with their results.
{"columns": ["compound", "TGI"],
 "data": [
  ["CC1=NN(C(=O)CC(=O)Nc2ccc(C)cc2)C(=O)C1N=Nc1ccc(C(=O)O)cc1 (stereo unspecified)", "> 100 µM"],
  ["COc1ccc(N2C(=O)CC(Cl)C2=O)cc1 (stereo unspecified)", "> 100 µM"],
  ["CC(C)(C)O/C=C1/C(=O)OC2C[C@@H](O[Si](C)(C)C(C)(C)C)CC12 (stereo partly specified)", "> 100 µM"]
]}

Q. Would you mind telling me what TGI value was observed for "ClCc1cccc(Cn2cnc3c(NC45CC6CC(CC(C6)C4)C5)ncnc32)c1" ?
A. 45.8 µM

Q. Another compound: O=C1CC(CC(O)[C@@H]2CCCC[C@@H]2O)CC(=O)N1c1ccccc1 (stereo partly specified)
A. > 100 µM

Q. Another compound: CC(C)=CCC[C@@H](C)C1=C(O)C(O)C(C)=C2N=C(c3ccccc3)C(=O)OC21 (stereo partly specified)
A. > 25 µM

Q. Another compound: "COC(=O)c1cc2c(o1)Sc1ccccc1NC2=O"
A. > 100 µM

Q. Another compound: "CCN(CC)C(=C(C(Cl)=C(Cl)Cl)[N+](=O)[O-])N(CC)CC"
A. > 100 µM

Q. Another compound: "CC(C)CS(=O)(=O)/C(=C(\c1ccc(Br)cc1)S(=O)(=O)CC(C)C)c1ccc(Br)cc1"
A. 40.9 µM

Q. Another compound: CCOC(=O)C(N)C[S][Sn]([CH3])([CH3])[Cl] (stereo unspecified)
A. > 100 µM

Q. Another compound: O=C1OC(CC(=O)c2ccc(Cl)c(Cl)c2)C(Cl)=C1Cl (stereo unspecified)
A. > 100 µM

Q. Another compound: COc1ccc(/C=C2\CCC(CNc3cc(C)on3)C2=O)cc1 (stereo unspecified)
A. > 100 µM

Q. Another compound: "Nc1ccc(N(S(=O)(=O)c2ccccc2)S(=O)(=O)c2ccccc2)c(Cl)c1"
A. > 100 µM

Q. Another compound: "O=C(O[C@H]1CN[C@H](C#Cc2cc3ncnc(Nc4ccc5c(ccn5Cc5cc(F)ccc5F)c4)c3s2)C1)N1CCOCC1"
A. > 16.7 µM

Q. Another compound: "N#C/C(=C\c1cn(Cc2ccccc2)c2ccccc12)c1nn(-c2ccccc2)c(N)c1C#N"
A. 30.7 µM

Q. Another compound: CC(=O)Nc1ccc(C(=O)NN2C(=O)C(Cl)C2c2ccc(Cl)cc2)cc1 (stereo unspecified)
A. > 100 µM

Q. Another compound: "CC(=O)Oc1cc2c(n(C)c1=O)-c1ccccc1C2"
A. > 100 µM

Q. Another compound: CCCCCCCCC[C@@H]1CC(=O)OCC2OC(O[C@H](CCCCCCCCC)CC(=O)OCC3OC(O[C@H](CCCCCCCCC)CC(=O)OCC4OC(O1)C(O)C(O)C4O)C(O)C(O)C3O)C(O)C(O)C2O (stereo partly specified)
A. 28.2 µM

Q. Another compound: CC12OC(c3ccccc3)=CC(c3ccc(Cl)cc3)=C1C(c1ccccc1)=CC2=O (stereo unspecified)
A. > 100 µM

Q. Another compound: "COc1ccc([N+]2=NC(c3ccc([N+](=O)[O-])cc3)=NN(c3ccccc3)C2)cc1"
A. > 100 µM

Q. Another compound: "CO[C@H]1c2cccc3cccc(c23)[C@@H]1n1[nH]c(=O)n(C(C)(C)C)c1=O"
A. > 100 µM
